target: Recombinant Human TNF-α/TNFSF1A (human, UniProt P01375 77-233); assay: cell-based or functional assay
Sequence (P01375 77-233 limits assumed): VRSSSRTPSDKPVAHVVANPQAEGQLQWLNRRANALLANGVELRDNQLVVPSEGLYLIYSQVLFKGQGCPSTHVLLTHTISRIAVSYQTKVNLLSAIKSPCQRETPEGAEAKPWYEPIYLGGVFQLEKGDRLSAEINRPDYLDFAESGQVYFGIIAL
reported_metric: TNFα Neutralization Assay EC50 nM (L929 cells)

See these solved cases before continuing.
binder | measured
AB218 (antibody, human IgG1, kappa, V domains shown, Parent anti-TNF antibody; also called AB218VH) VH: EVQLVESGGGLIQPGGSLRLSCAASGFTVSRNYMSWVRQAPGKGLEWVSVIYSGDRTYYADSVKGRFTISRDNSKNTLYLQMNSLRAEDTAVYYCARGEGGFDYWGQGTLVTVSS VL: EIVMTQSPATLSVSPGERATLSCRASQSVSSNLAWYQQKPGQAPRLLIHGASIRATGLPARFSGSGSGTEFTLTISSLQSEDFAVYYCQQYNYWWTFGQGTKVEIKR | 0.0345 nM
AB213 (antibody, human IgG1, kappa, V domains shown, Parent anti-TNF antibody; also called AB213VH) VH: QVQLKESGPGLVAPSQSLSITCTVSGFSLTDYGVNWVRQPPGKGLEWLGMIWGDGSTDYDSTLKSRLSISKDNSKSQIFLKMNSLQTDDTARYYCAREWHHGPVAYWGQGTLVTVSA VL: DIVMTQSHKFMSTTVGDRVSITCKASQAVSSAVAWYQQKPGQSPKLLIYWASTRHTGVPDRFTGSGSVTDFTLTIHNLQAEDLALYYCQQHYSTPFTFGSGTKLEIKR | 0.189 nM
AB217 (antibody, human IgG1, kappa, V domains shown, Parent anti-TNF antibody; also called AB217VH) VH: QVQLVESGGGVVQPGRSLRLSCAASGFTFSSYDMHWVRQAPGKGLEWVAVIWSDGSIKYYADSVKGRFTISRDNSKNTLYLQMNSLRAEDTAVYYCAREVESAMGGFYYNGMDVWGQGTTVTVSS VL: DIQMTQSPSSLSASVGDRVTITCRASQGIRIDLGWYQQKPGKAPKRLIYAASTLQSGVPSRFSGSGSGTEFIFTISSLQPEDFASYYCLQHKSYPLTFGGGTKVEIKR | 0.212 nM

Now consider the entry below.
query: State its TNFα Neutralization Assay EC50 nM (L929 cells): AB214 (antibody, human IgG1, kappa, V domains shown, Parent anti-TNF antibody; also called AB214VH) VH: EVKLEESGGGLVQPGGSMKLSCVASGFIFSNHWMNWVRQSPEKGLEWVAEIRSKSINSATHYAESVKGRFTISRDDSKSAVYLQMTDLRTEDTGVYYCSRNYYGSTYDYWGQGTTLTVSS VL: DILLTQSPAILSVSPGERVSFSCRASQFVGSSIHWYQQRTNGSPRLLIKYASESMSGIPSRFSGSGSGTDFTLSINTVESEDIADYYCQESHSWPFTFGSGTNLEVKR
result: 0.04 nM
